Ref: the Human Domainome abundance scans (Beltran et al. 2025)

B1: DNA topoisomerase 3-alpha, residues 812 to 851; numbered along this chain, Q13472 (parent)
chain: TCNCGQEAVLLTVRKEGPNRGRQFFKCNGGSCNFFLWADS

# Variants of: B1
# test_name: abundance fitness (aPCA) (normalised: wild type 0, dead -1); higher = more abundant; growth selection in yeast, the domain comes from the species named
# run_parameters: Homo sapiens
Property: abundance fitness; scope: individual variants
Form rule: numeric answer, no unit written next to it.

Examples with their reported abundance fitness follow.
{"columns": ["variant_key", "abundance fitness"],
 "data": [
  ["N19V", -0.54],
  ["G5C", -0.484],
  ["G17Q", -0.681],
  ["R14S", -0.094]
]}

# query: abundance fitness of entry C4L -1.24

Recorded abundance fitness of S31H , please. 0.092

Give the measured abundance fitness of D39M . -1.03

Need abundance fitness, item K15A -0.282
